Below, each of the molecules is paired with its reported growth value.
Test system: M14 melanoma
measurement notes: NCI-60 one-dose screen, 48 h (100 = growth as untreated, 0 = no growth, -100 = all killed)
condition info: 10 µM unless noted
About 83,000 compounds went through this panel and 20% of them were active in at least one assay; those are over-represented in the sample as a whole.
Write the answer as a number in %, unit excluded.

Please review the following examples before continuing.
INSERT INTO assay_data (molecule, data_value) VALUES
  ('COc1ccc(OC)c(NC(=O)c2cc(S(=O)(=O)N3CCc4ccccc43)ccc2OC)c1', 98.8),
  ('COc1cc2c3c(c(=O)oc2cc1OS(=O)(=O)c1ccc(C(F)(F)F)cc1)CCCCC3', 83.7),
  ('COc1cccc2cc(-c3cc4ccccc4[nH]3)c(=NC(=O)c3ccc(Cl)cc3)oc12', -28.9);

// query Value lookup for growth; key = "Nc1c(C(=O)Nc2cccc(C(F)(F)F)c2)sc2nc3c(cc12)CCCCCC3"
// result 47.1

// query Need growth of "COc1ccc(-n2c(C)cc(-c3ccccc3)c2C)cc1" , thanks.
// result 15.9

// query # query: growth of entry "Nc1c(C(=O)Nc2c(Cl)cccc2Cl)sc2nc3c(cc12)CCCCC3"
// result 43.8

// query Given the entry "CCSc1nnc(NC(=O)COc2ccc(Cl)cc2C)s1" , report its measured growth.
// result 105

// query Please look up its growth: "COc1cc(CCn2nnc3c(Nc4ccc(N5CCOCC5)cc4)ncnc32)cc(OC)c1"
// result 85.5

// query So what's the measured growth for this one? "COc1cc(NCCCN=C(N)NC(N)=NC(C)C)c2ncccc2c1"
// result 65.3

// query For the molecule "Cc1ccc(Oc2nc3ccccc3cc2-c2nnc(Cn3c(COc4ccccc4)nc4ccccc43)o2)cc1" , what growth is on record?
// result 45.5

// query So what does the record say about growth for "CCCCCCCC/C=C\CCCCCCCCOc1ccccc1CCOP(=O)(O)OCC[N+](C)(C)C" ?
// result 84.4

// query growth for "COC(=O)CCCCCN=Cc1c(O)c(O)c(C(C)C)c2cc(C)c(-c3c(C)cc4c(C(C)C)c(O)c(O)c(C=NCCCCCC(=O)OC)c4c3O)c(O)c12" ?
// result 18.6

// query Form field: reported growth of "COc1cc(C(=O)N2CCN(C(=O)c3ccco3)CC2)c(N)cc1OCc1ccccc1"
// result 102

// provenance: PubChem BioAssay (NCI)
